Here the recorded MRSA (inhibition), median diameter of zone of inhibition is given for each entry.
# Test system: 10 strains of MRSA (652-659, 919-920)
# test-details: Kirby-Bauer zones of inhibition, 10 strains of MRSA
# test-conditions: median of 10 strains of MRSA (652-659, 919-920); c = partial inhibition within this diameter
Marks after values point to notes of the source that are not given here.
metric: MRSA (inhibition), median diameter of zone of inhibition

smiles: CSN1C(=O)OC[C@@H]1c1ccccc1
measured-result: 29 mm
--
smiles: CSN1C(=O)OC[C@H]1c1ccccc1
measured-result: 28 mm
--
smiles: CSN1C(=O)OC[C@H]1C(C)C
measured-result: 19^c mm
--
smiles: CSN1C(=O)OC[C@@H]1C(C)C
measured-result: 16^c mm
